- Experimental target: DPAGT1 (Human) (Homo sapiens, UniProt Q9H3H5)
- Construct: made in house; host or cells: Expi293 cells (suspension)
- Sequence (Q9H3H5 whole entry): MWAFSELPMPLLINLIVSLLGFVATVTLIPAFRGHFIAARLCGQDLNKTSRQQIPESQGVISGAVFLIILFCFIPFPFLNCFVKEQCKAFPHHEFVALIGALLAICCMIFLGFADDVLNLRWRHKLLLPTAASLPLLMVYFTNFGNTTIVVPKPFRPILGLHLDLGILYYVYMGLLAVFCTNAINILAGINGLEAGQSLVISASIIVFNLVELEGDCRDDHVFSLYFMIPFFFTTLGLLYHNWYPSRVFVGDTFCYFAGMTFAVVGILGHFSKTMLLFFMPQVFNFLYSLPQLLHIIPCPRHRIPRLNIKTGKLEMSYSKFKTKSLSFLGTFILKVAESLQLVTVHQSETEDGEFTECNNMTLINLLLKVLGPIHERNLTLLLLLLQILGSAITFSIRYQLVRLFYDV
- Procedure text: DPAGT1 assay
- Assay type: biochemical
Result type: pIC50
Give only the number. pIC50 is defined as minus log10 of concentration in molar units.

[ask] Looking for the measured pIC50 of COC1C(O)C(C(OC2OC(C(=O)NC3CCCCNC3=O)=CC(O)C2O)C(N)=O)OC1n1ccc(=O)[nH]c1=O (stereo not shown) , can you help?
[reply] 4.94

[ask] Looking for the measured pIC50 of `CO[C@H]1[C@@H](OC)[C@H](n2ccc(=O)[nH]c2=O)O[C@@H]1[C@@H](O[C@H]1OC(C(=O)N[C@H]2CCCCNC2=O)=C[C@H](O)[C@@H]1O)C(N)=O` , can you help?
[reply] 5.35

[ask] Looking for the measured pIC50 of COC1C(O)[C@@H]([C@@H](O[C@H]2OC(C(=O)NCc3ccc(N4CCC(c5ccc(OC(F)(F)F)cc5)CC4)cc3)=C[C@H](O)[C@@H]2O)C(N)=O)O[C@H]1n1ccc(=O)[nH]c1=O (stereo partly shown) , can you help?
[reply] 6.22

====

- Test system: HCT-116
- Procedure text: MTT cytotoxicity assay
- Assay type: cell-based
- Condition details: Homo sapiens, HCT-116, 72 h
- Procedure: Cell lines. […] MTT cytotoxicity assay. […] Viability was assessed on the basis of cellular conversion of MTT into a purple formazan product. The absorbance of the colored formazan product was measured at 570 nm by BioTek Synergy HT Spectrophotometer.
Result type: pIC50
Give only the number. pIC50 is defined as minus log10 of concentration in molar units.

[ask] Which pIC50 is reported with HCT-116 for this entry: `CO[C@@H]1[C@H](O)[C@@H]([C@@H](O[C@H]2OC(C(=O)NCc3ccc(N4CCC(Oc5ccc(OC(F)(F)F)cc5)CC4)cc3)=C[C@H](O)[C@@H]2O)C(N)=O)O[C@H]1n1ccc(=O)[nH]c1=O` ?
[reply] 4.60

====

- Experimental target: AglH (M. jannaschii) (Methanocaldococcus jannaschii, UniProt Q58513)
- Sequence (Q58513 whole entry): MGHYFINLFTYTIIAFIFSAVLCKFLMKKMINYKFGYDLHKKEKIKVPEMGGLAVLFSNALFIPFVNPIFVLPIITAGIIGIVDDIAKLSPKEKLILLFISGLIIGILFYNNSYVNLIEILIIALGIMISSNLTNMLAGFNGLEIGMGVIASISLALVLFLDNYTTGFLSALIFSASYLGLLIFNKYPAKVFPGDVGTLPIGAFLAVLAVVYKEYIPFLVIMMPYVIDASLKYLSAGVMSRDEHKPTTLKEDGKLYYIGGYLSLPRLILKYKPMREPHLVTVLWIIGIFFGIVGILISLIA
- Procedure text: AglH assay
pIC50: −log10 of the molar value.
Provide the reported pIC50 of each item.

[ask] Looking for the measured pIC50 of NC(=O)[C@H](O[C@H]1OC(C(=O)NCc2ccc(N3CCC(c4ccc(OC(F)(F)F)cc4)CC3)cc2)=C[C@H](O)[C@@H]1O)[C@H]1O[C@@H](n2ccc(=O)[nH]c2=O)C(O)C1O (stereo partly drawn) , can you help?
[reply] < 4.30

[ask] Looking for the measured pIC50 of COC1C(O)C(C(OC2OC(C(=O)NC3CCCCNC3=O)=CC(O)C2O)C(N)=O)OC1n1ccc(=O)[nH]c1=O (stereo not drawn) , can you help?
[reply] 4.70

[ask] Looking for the measured pIC50 of COC1C(O)[C@H](n2ccc(=O)[nH]c2=O)O[C@@H]1[C@@H](O[C@H]1OC(CNCc2ccc(N3CCC(c4ccc(OC(F)(F)F)cc4)CC3)cc2)=C[C@H](O)[C@@H]1O)C(N)=O (stereo partly drawn) , can you help?
[reply] < 4.30

[ask] Looking for the measured pIC50 of COC1C(O)[C@@H]([C@@H](O[C@H]2OC(C(=O)NCc3ccc(N4CCC(c5ccc(OC(F)(F)F)cc5)CC4)cc3)=C[C@H](O)[C@@H]2O)C(N)=O)O[C@H]1n1ccc(=O)[nH]c1=O (stereo partly drawn) , can you help?
[reply] 4.82

[ask] Looking for the measured pIC50 of NC(=O)[C@H](O[C@H]1OC(C(=O)N[C@H]2CCCCNC2=O)=C[C@H](O)[C@@H]1O)[C@H]1O[C@@H](n2ccc(=O)[nH]c2=O)C(O)C1O (stereo partly drawn) , can you help?
[reply] < 4.30

[ask] Looking for the measured pIC50 of `CO[C@H]1[C@@H](O)[C@H](n2ccc(=O)[nH]c2=O)O[C@@H]1[C@@H](O[C@H]1OC(C(=O)N[C@H]2CCCCNC2=O)=C[C@H](O)[C@@H]1O)C(N)=O` , can you help?
[reply] < 4.30

Attribution: patent US12570684B2
